- measured_target: Mcl-1 (Homo sapiens (Human))
- Sequence (Q07820 172-327): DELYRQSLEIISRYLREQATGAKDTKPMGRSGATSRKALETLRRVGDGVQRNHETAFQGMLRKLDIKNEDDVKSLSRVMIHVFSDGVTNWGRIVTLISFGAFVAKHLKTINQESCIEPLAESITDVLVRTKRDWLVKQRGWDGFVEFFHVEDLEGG
- run_description: Fluorescence polarization anisotropy (FPA) competition assay, FITC-Bak or FITC-Bim BH3 peptide
- Type: binding
- condition_summary: read-out: Ki for Inhibition of Mcl-1 by FPA assay
// NB: equality with 2 nM counts as Not met; only Ki strictly below is Met

Reference set, count: 6
Cc1cc(OCCCc2c3n(c4c(-c5c(C)nn(C)c5C)c(Cl)ccc24)[C@H](C)CN(c2cn(C)c4c(C)c(C(=O)O)ccc24)C3=O)cc(C)c1Cl; Met
COc1cc(C(=O)O)cc(N2CCCn3c(c(CCCOc4cc(C)c(Cl)c(C)c4)c4ccc(Cl)c(-c5c(C)nn(C)c5C)c43)C2=O)c1OCCOc1ccccc1F; Not met
COc1cc(C(=O)O)nc2c(N3C[C@@H](C)n4c(c(CCCOc5cc(C)c(Cl)c(C)c5)c5ccc(Cl)c(-c6c(C)nn(C)c6C)c54)C3=O)cccc12; Met
Cc1cc(N2C[C@@H](C)n3c(c(CCCOc4cc(C)c(Cl)c(C)c4)c4ccc(Cl)c(-c5c(C)ncnc5C)c43)C2=O)c2c(c1)cc(C(=O)O)n2Cc1ccccn1; Met
Cc1cc(N2C[C@@H](C)n3c(c(CCCOc4cc(C)c(Cl)c(C)c4)c4ccc(Cl)c(-c5c(C)nn(C)c5C)c43)C2=O)c2c(c1)c(C(=O)O)cn2C [Example 162]; Met
Cc1cc(OCCCc2c3n(c4c(-c5c(C)nn(C)c5C)c(Cl)ccc24)[C@H](C)CN(c2cccc4c2cc(C(=O)O)n4CCN2CCOCC2)C3=O)cc(C)c1Cl; Met

Let's switch to this compound now.
Decide: Ki of Cc1cc(OCCCc2c3n(c4c(-c5c(C)nn(C)c5C)c(Cl)ccc24)[C@H](C)CN(c2cc(OCc4ccccc4)cc4c2cc(C(=O)O)n4C)C3=O)cc(C)c1Cl [Example 297] strictly below 2 nM?
Not met

----------
- measured_target: Mcl-1 (Homo sapiens (Human))
- run_description: TR-FRET binding assay, FITC-Bak peptide and MBP-tagged Mcl-1
- condition_summary: read-out: Ki for Inhibition of Mcl-1 by TR-FRET assay
pKi: −log10 of the molar value.
observable: pKi

Before answering, review these 5 worked examples.
COc1cc(N2C[C@@H](C)n3c(c(CCCOc4cc(C)c(Cl)c(C)c4)c4ccc(Cl)c(-c5c(C)ncnc5C)c43)C2=O)c2c(c1)cc(C(=O)O)n2Cc1cc(C)ccn1 [Example 565]; > 9.70
COCCn1cc(C(=O)O)c2cc(OC)cc(N3C[C@@H](C)n4c(c(CCCOc5cc(C)c(Cl)c(C)c5)c5ccc(Cl)c(-c6c(C)nn(C)c6C)c54)C3=O)c21 (single isomer, unassigned) [Example 672]; 9.37
CC(=O)N1CCN(c2cccc(Cn3c(C(=O)O)cc4cc(C)cc(N5C[C@@H](C)n6c(c(CCCOc7cc(C)c(Cl)c(C)c7)c7ccc(Cl)c(-c8c(C)nn(C)c8C)c76)C5=O)c43)n2)CC1 [Example 528]; > 9.70
Cc1cc(OCCCc2c3n(c4c(-c5c(C)nn(C)c5C)c(Cl)ccc24)[C@H](C)CN(c2cc(OC4CCN(C)C4)cc4cc(C(=O)O)n(C)c24)C3=O)cc(C)c1Cl (some centres unmarked) [Example 521]; > 9.70
Cc1cc(N2C[C@@H](C)n3c(c(CCCOc4cc(C)c(Cl)c(C)c4)c4ccc(Cl)c(-c5c(C)nn(C)c5C)c43)C2=O)c2c(c1)cc(C(=O)O)n2Cc1cccc(C#N)n1 [Example 557]; > 9.70

Batch of 3 compounds: report pKi for each.
1. Cc1ccc(Cn2cc(C(=O)O)c3cccc(N4C[C@@H](C)n5c(c(CCCOc6cc(C)c(Cl)c(C)c6)c6ccc(Cl)c(-c7c(C)nn(C)c7C)c65)C4=O)c32)nc1 (single isomer, unassigned) [Example 501]
2. CCOCCOc1cc(N2C[C@@H](C)n3c(c(CCCOc4cc(C)c(Cl)c(C)c4)c4ccc(Cl)c(-c5c(C)nn(C)c5C)c43)C2=O)c2c(c1)c(C(=O)O)cn2Cc1ccccn1 [Example 610]
3. Cc1cc(OCCCc2c3n(c4c(-c5c(C)nn(C)c5C)c(Cl)ccc24)[C@H](C)CN(c2cn(C)c4ncc(C(=O)O)cc24)C3=O)cc(C)c1Cl [Example 575]

[9.17, "> 9.70", "> 9.70"]

Batch of 7 compounds: report pKi for each.
1. Cc1cc(OCCCc2c3n(c4c(-c5c(C)nn(C)c5C)c(Cl)ccc24)[C@H](C)CN(c2cc(CN4CCN(C)CC4)cc4c(C(=O)O)cn(C)c24)C3=O)cc(C)c1Cl [Example 490]
2. Cc1cc(OCCCc2c3n(c4c(-c5c(C)nn(C)c5C)c(Cl)ccc24)[C@H](C)CN(c2cc(OC4CC[N+](C)(C)C4)cc4cc(C(=O)O)n(C)c24)C3=O)cc(C)c1Cl (some centres unmarked) [Example 513, 2,2,2-trifluoroacetate]
3. COCCOCCn1c(C(=O)O)cc2cc(C)cc(N3C[C@@H](C)n4c(c(CCCOc5cc(C)c(Cl)c(C)c5)c5ccc(Cl)c(-c6c(C)ncnc6C)c54)C3=O)c21 [Example 635]
4. COCc1cc(N2C[C@@H](C)n3c(c(CCCOc4cc(C)c(Cl)c(C)c4)c4ccc(Cl)c(-c5c(C)nn(C)c5C)c43)C2=O)c2c(c1)cc(C(=O)O)n2Cc1ccccn1 [Example 691]
5. COCCn1c(C(=O)O)cc2c(OC)ccc(N3C[C@@H](C)n4c(c(CCCOc5cc(C)c(Cl)c(C)c5)c5ccc(Cl)c(-c6c(C)nn(C)c6C)c54)C3=O)c21 [Example 587]
6. Cc1cc(OCCCc2c3n(c4c(-c5c(C)nn(C)c5C)c(Cl)ccc24)[C@H](C)CN(c2cc(CN4CCN(C)CC4)cc4cc(C(=O)O)n(C)c24)C3=O)cc(C)c1Cl [Example 544]
7. Cc1cc(OCCCc2c3n(c4c(-c5c(C)nn(C)c5C)c(Cl)ccc24)[C@H](C)CN(c2cn(CC(=O)N4CCOCC4)c4ccc(-c5ncccn5)cc24)C3=O)cc(C)c1Cl [Example 531]

9.54
> 9.70
> 9.70
> 9.70
> 9.70
> 9.70
9.32

Batch of 5 compounds: report pKi for each.
1. Cc1cc(C)nc(Cn2c(C(=O)O)cc3cc(C)cc(N4C[C@@H](C)n5c(c(CCCOc6cc(C)c(Cl)c(C)c6)c6ccc(Cl)c(-c7c(C)nn(C)c7C)c65)C4=O)c32)c1 [Example 599]
2. COCCn1c(C(=O)O)cc2cc(OC)cc(N3C[C@@H](C)n4c(c(CCCOc5cc(C)c(Cl)c(C)c5)c5ccc(Cl)c(-c6c(C)ncnc6C)c54)C3=O)c21 [Example 660]
3. Cc1cc(OCCCc2c3n(c4c(-c5c(C)nn(C)c5C)c(Cl)ccc24)[C@H](C)CN(c2cc(COCCN4CCOCC4)cc4cc(C(=O)O)n(C)c24)C3=O)cc(C)c1Cl [Example 693]
4. COCCOc1cc(N2C[C@@H](C)n3c(c(CCCOc4cc(C)c(Cl)c(C)c4)c4ccc(Cl)c(-c5c(C)nn(C)c5C)c43)C2=O)c2c(c1)c(C(=O)O)cn2Cc1cc(C)cc(C)n1 [Example 652]
5. Cc1cc(N2C[C@@H](C)n3c(c(CCCOc4cc(C)c(Cl)c(C)c4)c4ccc(Cl)c(-c5c(C)nn(C)c5C)c43)C2=O)c2c(c1)cc(C(=O)O)n2Cc1cccc(N2CCN(C)CC2)n1 [Example 516]

1. > 9.70
2. > 9.70
3. > 9.70
4. 9.55
5. > 9.70

----------
- measured_target: Mcl-1 (Homo sapiens (Human))
- run_description: Fluorescence polarization anisotropy (FPA) competition assay, FITC-Bak or FITC-Bim BH3 peptide
- Format: binding
- condition_summary: read-out: Ki for Inhibition of Mcl-1 by FPA assay
Field: log10 of Ki. Provide a value for each of the molecules that follow.
Values below are the log10 of the recorded Ki, with nM as the unit.

Before answering, review these 4 worked examples.
CC[C@@H]1Cn2c(c(CCCOc3cc(C)c(Cl)c(C)c3)c3ccc(Cl)c(-c4c(C)nn(C)c4C)c32)C(=O)N1; 1.40
COc1ccnc(Cn2c(C(=O)O)cc3cccc(N4C[C@@H](C)n5c(c(CCCOc6cc(C)c(Cl)c(C)c6)c6ccc(Cl)c(-c7c(C)nn(C)c7C)c65)C4=O)c32)c1; 0.28
Cc1cc(OCCCc2c3n(c4c(-c5c(C)nn(C)c5C)c(Cl)ccc24)[C@H](C)CN(c2cccc4cc(-c5nnco5)n(C)c24)C3=O)cc(C)c1Cl; 0.62
Cc1cc(N2CCCn3c(c(CCCOc4cc(C)c(Cl)c(C)c4)c4ccc(Cl)c(-c5c(C)ncnc5C)c43)C2=O)c2c(c1)cc(C(=O)O)n2C; 0.38

Batch of 3 molecules: report log10 of Ki for each.
1. Cc1cc(OCCCc2c3n(c4c(-c5c(C)nn(C)c5C)c(Cl)ccc24)[C@H](C)CN(c2cc(OCC4CCN(C)C4)cc4c2cc(C(=O)O)n4C)C3=O)cc(C)c1Cl (some centres unmarked)
2. Cc1cc(OCCCc2c3n(c4c(-c5c(C)nn(C)c5C)c(Cl)ccc24)[C@H](C)CN(c2cn(C)c4cc(C(=N)NO)ccc24)C3=O)cc(C)c1Cl
3. Cc1cc(OCCCc2c3n(c4c(-c5c(C)nn(C)c5C)c(Cl)ccc24)[C@H](C)CN(c2ccc(C(=O)O)c4ccccc24)C3=O)cc(C)c1Cl

1. 0.04
2. 0.65
3. 0.08
